- target_desc: His6-ERα298-554 WT (ERα ligand-binding domain) (Homo sapiens (Human), UniProt P03372)
- Sequence (P03372 298-554): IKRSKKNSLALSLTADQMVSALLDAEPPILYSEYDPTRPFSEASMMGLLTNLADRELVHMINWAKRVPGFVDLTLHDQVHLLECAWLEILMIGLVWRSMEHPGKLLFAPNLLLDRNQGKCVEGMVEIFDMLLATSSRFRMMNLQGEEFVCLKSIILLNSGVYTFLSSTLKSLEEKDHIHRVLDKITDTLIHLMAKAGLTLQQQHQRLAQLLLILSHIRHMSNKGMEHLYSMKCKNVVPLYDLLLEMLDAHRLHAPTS
- experiment_notes: Test A: biochemical antagonist activity, LanthaScreen TR-FRET ERα coactivator assay, WT
- test_conditions: protocol with 3 nM estradiol; read-out: Antagonism WT IC50
Classes (IC50): low end (below 7 nM), middle (7 nM to below 20 nM), high end (20 nM or more)

Examples from the recorded data:
smiles_representation: CCOc1ccc(C2=C(c3ccc(O[C@H]4CCN(CCCF)C4)cc3)c3ccc(O)cc3OCC2)c(C)c1
label_class: low end
--
smiles_representation: Oc1ccc2c(c1F)OCCC(c1cccc3[nH]ccc13)=C2c1ccc(O[C@H]2CCN(CCCF)C2)cc1
label_class: low end
--
smiles_representation: Oc1ccc(C2=C(c3ccc(O[C@H]4CCN(CCCF)C4)cc3)c3ccc(O)cc3OCC2)c(F)c1
label_class: low end

Task item: Textbook exercise: identify the category of the compound given here, Cc1c(Cl)cccc1C1=C(c2ccc(O[C@H]3CCN(CCCF)C3)cc2)c2ccc(O)c(C)c2OCC1 , according to its measured value.
Reply: high end

Task item: Bin? O=S1(=O)CCC(c2cccc(F)c2Cl)=C(c2ccc(O[C@H]3CCN(CCCF)C3)cc2)c2ccc(O)cc21
Reply: middle

Task item: Lab note: which band did Oc1ccc2c(c1)C(c1ccc(O[C@H]3CCN(CCCF)C3)cc1)=C(c1ccc(Cl)cc1F)CCS2 land in?
Reply: high end

Task item: Exercise: read the entry Oc1ccc2c(c1)OCCC(c1ccc(Cl)cc1Cl)=C2c1ccc(O[C@H]2CCN(CCCF)C2)cc1 and state which class it falls under.
Reply: middle

Task item: Into which bin does this compound go? Oc1ccc2c(c1Cl)OCCC(c1ccc3cc[nH]c3c1)=C2c1ccc(O[C@H]2CCN(CCCF)C2)cc1
Reply: high end

Task item: Band for Oc1ccc2c(c1)SCCC(c1ccc(Cl)c(F)c1)=C2c1ccc(O[C@H]2CCN(CCCF)C2)cc1 ?
Reply: low end

----------
Field: pIC50. Provide a value for each of the compounds that follow.
- target_desc: His6-ERα298-554 Y537S mutant (ERα ligand-binding domain) (Homo sapiens (Human), UniProt P03372, Y537S)
- Sequence (P03372 298-554 Y537S): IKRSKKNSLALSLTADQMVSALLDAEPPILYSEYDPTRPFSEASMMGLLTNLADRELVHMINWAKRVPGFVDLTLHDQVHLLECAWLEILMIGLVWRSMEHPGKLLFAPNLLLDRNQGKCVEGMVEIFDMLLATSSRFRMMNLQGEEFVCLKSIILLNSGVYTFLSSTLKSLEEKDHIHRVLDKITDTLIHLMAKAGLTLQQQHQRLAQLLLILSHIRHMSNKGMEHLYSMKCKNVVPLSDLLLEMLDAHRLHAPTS
- experiment_notes: Test A: biochemical antagonist activity, LanthaScreen TR-FRET ERα coactivator assay, Y537S mutant
- test_conditions: asterisk (*): protocol using 10 nM estradiol; read-out: Antagonism Y537S IC50
One number for each entry, as −log10 of the molar value.

compound: CCOc1ccc(C2=C(c3ccc(O[C@H]4CCN(CCCF)C4)cc3)c3ccc(O)cc3SC2)c(F)c1Cl [Example 63]
readout_value: 5.61

compound: CC(C)(C)c1ccc(C2=C(c3ccc(O[C@H]4CCN(CCCF)C4)cc3)c3ccc(O)cc3SCC2)cc1 [Example 216]
readout_value: 6.27

compound: Oc1ccc2c(c1)CCCC(c1ccc(OC(F)F)c(F)c1)=C2c1ccc(O[C@H]2CCN(CCCF)C2)nc1 [Example 241]
readout_value: 7.80

compound: Oc1ccc2c(c1)CCCC(c1ccc(SC(F)(F)F)cc1)=C2c1ccc(N[C@H]2CCN(CCCF)C2)cc1 [Example 90]
readout_value: 6.78

compound: Cc1ccc(C2=C(c3cnc(O[C@H]4CCN(CCCF)C4)nc3)c3ccc(O)cc3CCC2)c(F)c1 [Example 244]
readout_value: 7.47

compound: Oc1ccc2c(c1)SCCC(c1ccc(OC(F)F)cc1F)=C2c1ccc(O[C@H]2CCN(CCCF)C2)cc1 [Example 213]
readout_value: 7.26

compound: Oc1ccc(C2Sc3cc(O)ccc3OC2c2ccc(O[C@H]3CCN(CCCF)C3)cc2)cc1 (stereo partly drawn) [Example 258]
readout_value: 5.62

compound: C[C@H]1Cc2cc(C3=C(c4ccc(O[C@H]5CCN(CCCF)C5)cc4)c4ccc(O)cc4SCC3)ccc2O1 [Example 204]
readout_value: 7.82

Provide reported pIC50 for each item, in the same order as listed.
1. CCOc1ccc(C2=C(c3ccc(O[C@H]4CCN(CCCF)C4)cc3)c3ccc(O)cc3SCC2)c(F)c1F [Example 217]
2. Oc1ccc2c(c1)SCC(c1ccc(Cl)nc1Cl)=C2c1ccc(O[C@H]2CCN(CCCF)C2)cc1 [Example 50]
3. COc1ccc(C2=C(c3ccc(O[C@H]4CCN(CCCF)C4)cc3)c3ccc(O)cc3SC2)c(F)c1 [Example 24]
4. CCOc1ccc(C2=C(c3ccc(O[C@H]4CCN(CCCF)C4)nc3)c3ccc(O)c(F)c3CCC2)c(F)n1 [Example 252]

Reply:
1: 7.41; 2: 5.93; 3: 7.36; 4: 8.05
